compounds and their reported Ki
Target: recombinant human ALK5 (TGF-βR1) protein (Homo sapiens)
Construct: purchased Life Technologies PR9075A
Test: Biochemical ALK5 (TGF-βR1) assay to measure pKi (LANCE Ultra ULight kinase assay)
Details: apparent pKi from pIC50 by Cheng-Prusoff, read-out: ALK5 pKi (converted)

Record excerpt, results attached:
>  <compound>
Cc1cccc(-c2n[nH]cc2-c2ccc3ncc(N4CCCNCC4)cc3n2)n1 [Compound 349]

>  <Ki>
0.0398 to 0.316 nM

$$$$
>  <compound>
Cc1cccc(-c2[nH]cnc2-c2ccc3ncc(-c4ccc(C(=O)OCCN5CCN6CCCC6C5)cn4)cc3c2)n1 (stereo not shown) [Compound 1212]

>  <Ki>
0.0398 to 0.316 nM

$$$$
>  <compound>
Cc1cccc(-c2n[nH]cc2-c2ccc3ncc(-c4cn(Cc5ccccc5)nn4)cc3n2)n1 [Compound 48]

>  <Ki>
0.0398 to 0.316 nM

$$$$

Hi! What's the reported Ki for Cc1cccc(-c2[nH]cnc2-c2ccc3ncc(C(=O)OCCN)cc3c2)n1 [Compound 1040] on recombinant human ALK5 (TGF-βR1) protein (Homo sapiens)?
0.398 to 3.16 nM

Again, but for Cc1cccc(-c2n[nH]cc2-c2ccc3ncc(-c4cccc(F)c4)cc3n2)n1 [Compound 58]
0.0398 to 0.316 nM

Again, but for Cc1cccc(-c2nnn(Cc3ccccc3)c2-c2ccc3ncc(-c4cnn(C5CCCNC5)c4)cc3n2)n1 (stereo not shown) [Compound 216]
0.0398 to 0.316 nM

Again, but for Cc1cccc(-c2n[nH]cc2-c2ccc3ncc(-c4nn[nH]n4)cc3n2)n1 [Compound 177]
0.0398 to 0.316 nM

---

Target: recombinant human ALK5 (TGF-βR1) protein (Homo sapiens)
Construct: purchased Life Technologies PR9075A
Experiment: Biochemical ALK5 (TGF-βR1) assay to measure pKi (LANCE Ultra ULight kinase assay)
Conditions: apparent pKi from pIC50 by Cheng-Prusoff, read-out: ALK5 pKi (converted)
molecules and their reported Ki

Would you kindly share the measured Ki for `Cc1cccc(-c2[nH]ncc2-c2ccc3ncc(C(=O)OCCN4CCC[C@@H](N)C4)cc3c2)n1` ?
0.0398 to 0.316 nM

Again, but for `COC(=O)c1ccnc2ccc(-c3c(OC)n[nH]c3-c3cccc(C)n3)nc12`
0.398 to 3.16 nM

Again, but for `Cc1cccc(-c2[nH]cnc2-c2ccc3ncc(C(=O)OC4CNC4)cc3c2)n1`
0.0398 to 0.316 nM

Again, but for `Cc1cccc(-c2n[nH]cc2-c2ccc3nccc(CN(C)C)c3n2)n1`
3.98 to 31.6 nM

---

Target: recombinant human ALK5 (TGF-βR1) protein (Homo sapiens, UniProt P36897)
Construct: purchased Life Technologies PR9075A
Test: Biochemical ALK5 (TGF-βR1) assay to measure pKi (LANCE Ultra ULight kinase assay)
Conditions: apparent pKi from pIC50 by Cheng-Prusoff, read-out: ALK5 pKi (converted)
assay.metric: Ki

Record excerpt, results attached:
>  <molecule>
Cc1cccc(-c2n[nH]cc2-c2ccc3ncc(-c4cn(Cc5cnc6c(c5)CNCC6)nn4)cc3n2)n1 [Compound 325]

>  <Ki>
< 0.0316 nM

$$$$
>  <molecule>
Cc1cccc(-c2[nH]cnc2-c2ccc3ncc(C(=O)OCC4CNC4)cc3c2)n1 [Compound 700]

>  <Ki>
0.0398 to 0.316 nM

$$$$
>  <molecule>
Cc1cccc(-c2nc3ccccn3c2-c2ccc3ncc(-c4cn[nH]c4)cc3n2)n1 [Compound 469]

>  <Ki>
0.0398 to 0.316 nM

$$$$
>  <molecule>
Cc1cccc(-c2n[nH]cc2-c2ccc3ncc(N4C[C@@H](C)NC[C@H]4C)cc3n2)n1 (racemic) [Compound 462]

>  <Ki>
0.398 to 3.16 nM

$$$$
>  <molecule>
Cc1cccc(-c2n[nH]cc2-c2ccc3ncc(-c4ccc(N)nc4)cc3n2)n1 [Compound 562]

>  <Ki>
< 0.0316 nM

$$$$

Would you kindly share the measured Ki for Cc1cccc(-c2[nH]cnc2-c2ccc3ncc(C(=O)OCCCCN4CCCC4)cc3c2)n1 [Compound 714] ?
0.0398 to 0.316 nM

Again, but for Cc1cccc(-c2n[nH]cc2-c2ccc3ncc(-c4nc5c([nH]4)CCNCC5)cc3n2)n1 [Compound 642]
0.0398 to 0.316 nM

Again, but for Cc1cccc(-c2[nH]cnc2-c2ccc3nccc(C(=O)OC[C@H]4CC[C@H](N)CC4)c3c2)n1 [Compound 1081]
0.398 to 3.16 nM

---

compounds and their reported Ki
Target: recombinant human ALK5 (TGF-βR1) protein (Homo sapiens, UniProt P36897)
Construct: purchased Life Technologies PR9075A
Assay: Biochemical ALK5 (TGF-βR1) assay to measure pKi (LANCE Ultra ULight kinase assay)
Settings: apparent pKi from pIC50 by Cheng-Prusoff, read-out: ALK5 pKi (converted)

>  <compound>
Cc1cccc(-c2[nH]cnc2-c2ccc3ncc(N4CCC(C(=O)O[C@@H]5CCNC5)CC4)cc3c2)n1

>  <assay.metric>
Ki

>  <measured>
0.0398 to 0.316 nM

$$$$
>  <compound>
Cc1cccc(-c2n[nH]cc2-c2ccc3nccc(C4COCC(C)N4)c3n2)n1 (stereo not shown)

>  <assay.metric>
Ki

>  <measured>
3.98 to 31.6 nM

$$$$
>  <compound>
Cc1cccc(-c2[nH]cnc2-c2ccc3ncc(C(=O)O[C@@H]4CCCC[C@H]4N)cc3c2)n1

>  <assay.metric>
Ki

>  <measured>
0.398 to 3.16 nM

$$$$
>  <compound>
Cc1cccc(-c2n[nH]cc2-c2ccc3ncc(-c4ccc(C5CCCN(C(C)C)C5)cc4)cc3n2)n1 (stereo not shown)

>  <assay.metric>
Ki

>  <measured>
0.0398 to 0.316 nM

$$$$
>  <compound>
Cc1cccc(-c2n[nH]cc2-c2ccc3ncc(C(=O)NCCN4CCOCC4)cc3n2)n1

>  <assay.metric>
Ki

>  <measured>
< 0.0316 nM

$$$$

Please examine the following record next.
Hi! What's the reported Ki for Cc1cccc(-c2n[nH]cc2-c2ccc3ncc(N4CC5CNC5C4)cc3n2)n1 (stereo not shown) on recombinant human ALK5 (TGF-βR1) protein (Homo sapiens, UniProt P36897)?
0.0398 to 0.316 nM

---

Target: recombinant human ALK5 (TGF-βR1) protein (Homo sapiens, UniProt P36897)
Construct: purchased Life Technologies PR9075A
Assay: Biochemical ALK5 (TGF-βR1) assay to measure pKi (LANCE Ultra ULight kinase assay)
Details: apparent pKi from pIC50 by Cheng-Prusoff, read-out: ALK5 pKi (converted)
assay.metric: Ki

>  <compound>
Cc1cccc(-c2[nH]cnc2-c2ccc3ncc(C4=CC[C@H](NC(=O)[C@H]5CCCN5)CC4)cc3c2)n1 [Compound 776]

>  <Ki>
0.0398 to 0.316 nM

$$$$

Would you kindly share the measured Ki for Cc1cccc(-c2n[nH]cc2-c2ccc3nccc(CNCCCN4CCN(C(C)C)CC4)c3n2)n1 [Compound 819] ?
0.0398 to 0.316 nM

Again, but for Cc1cccc(-c2n[nH]cc2-c2ccc3nccc(CO)c3n2)n1 [Compound 801]
0.398 to 3.16 nM

Again, but for Cc1cccc(-c2[nH]cnc2-c2ccc3ncc(-c4ccc(C(=O)OCCN5CCC[C@H](N)C5)cn4)cc3c2)n1 [Compound 1214]
0.0398 to 0.316 nM

Again, but for Cc1cccc(-c2nc3ccccn3c2-c2ccc3ncc(-c4nnn5c4CNCC5)cc3n2)n1 [Compound 207]
0.0398 to 0.316 nM

---

molecules and their reported Ki
Biological target: recombinant human ALK5 (TGF-βR1) protein (Homo sapiens)
Construct: purchased Life Technologies PR9075A
Sequence (P36897 34-503): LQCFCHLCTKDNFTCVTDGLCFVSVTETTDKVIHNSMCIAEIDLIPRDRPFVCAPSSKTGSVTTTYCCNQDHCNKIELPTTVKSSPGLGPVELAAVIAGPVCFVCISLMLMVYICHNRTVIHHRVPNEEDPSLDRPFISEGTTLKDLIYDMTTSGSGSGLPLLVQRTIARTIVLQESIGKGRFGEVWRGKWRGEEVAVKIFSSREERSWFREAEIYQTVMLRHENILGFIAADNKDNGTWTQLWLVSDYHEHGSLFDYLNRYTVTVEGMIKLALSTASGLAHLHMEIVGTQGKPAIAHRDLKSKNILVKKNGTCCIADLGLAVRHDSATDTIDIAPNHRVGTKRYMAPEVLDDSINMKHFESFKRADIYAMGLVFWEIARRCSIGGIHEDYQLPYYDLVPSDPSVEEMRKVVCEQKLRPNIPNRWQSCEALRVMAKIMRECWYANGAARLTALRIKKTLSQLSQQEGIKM
Test: Biochemical ALK5 (TGF-βR1) assay to measure pKi (LANCE Ultra ULight kinase assay)
Conditions: apparent pKi from pIC50 by Cheng-Prusoff, read-out: ALK5 pKi (converted)

Record excerpt, results attached:
>  <molecule>
Cc1cccc(-c2[nH]cnc2-c2ccc3ncc(-c4ccc(C(=O)OCC5CNC5)nc4)cc3c2)n1 [Compound 54]

>  <system.tested>
recombinant human ALK5 (TGF-βR1) protein (Homo sapiens)

>  <Ki>
0.0398 to 0.316 nM

$$$$
>  <molecule>
Cc1cccc(-c2[nH]cnc2-c2ccc3ncc(-c4cccc(C(=O)O)c4)cc3c2)n1 [Compound 794]

>  <system.tested>
recombinant human ALK5 (TGF-βR1) protein (Homo sapiens)

>  <Ki>
0.0398 to 0.316 nM

$$$$
>  <molecule>
CNCc1cncc(-c2cnc3ccc(-c4c[nH]nc4-c4cccc(C)n4)nc3c2)c1 [Compound 214]

>  <system.tested>
recombinant human ALK5 (TGF-βR1) protein (Homo sapiens)

>  <Ki>
0.0398 to 0.316 nM

$$$$

Would you kindly share the measured Ki for Cc1nc(-c2[nH]cnc2-c2ccc3ncc(NCCN4CCCC4(C)C)cc3n2)ccc1F [Compound 603] ?
< 0.0316 nM
